Entries and their measured Relative cAMP EC50 follow.
Target entity: human glucagon receptor (human) (UniProt P47871)
Sequence (P47871 26-477): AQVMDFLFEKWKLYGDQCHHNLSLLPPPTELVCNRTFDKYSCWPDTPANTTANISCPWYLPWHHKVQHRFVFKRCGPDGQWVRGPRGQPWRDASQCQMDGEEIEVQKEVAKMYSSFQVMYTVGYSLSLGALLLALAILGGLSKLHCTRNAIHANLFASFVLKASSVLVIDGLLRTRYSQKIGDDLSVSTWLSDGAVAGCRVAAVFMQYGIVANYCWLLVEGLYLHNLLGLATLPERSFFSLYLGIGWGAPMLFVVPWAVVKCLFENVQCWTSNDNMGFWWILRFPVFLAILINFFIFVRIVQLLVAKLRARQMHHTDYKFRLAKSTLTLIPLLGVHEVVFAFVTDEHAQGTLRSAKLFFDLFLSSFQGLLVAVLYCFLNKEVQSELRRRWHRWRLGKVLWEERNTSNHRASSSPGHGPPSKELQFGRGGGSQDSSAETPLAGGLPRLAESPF
Experimental details: cell-based or functional assay
The reply should consist of the numeric value with the unit placed after it.

• YXQGTFTSDXSQXLDKKAQXAFIEXLIEXGPSSGEPPPSGSEE (Aib, 4Pal, Me4Pal, αMeL; lipidated Lys; C-terminal amide; synthetic construct; SITE 2: note = 2-Aminoisobutyric Acid; SITE 10: note = 3-(4-Pyridyl)-L-alanine; SITE 13: note = alpha-methyl-leucine; SITE 17: note = Lysine is chemically modified through conjugation of the epsilon-amino group of the Lysine side chain with (gamma-Glu)2-CO-(CH2)16-CO2H; SITE 20:) [Example 1125] = 5.83 nM

Memo: YXQGTFTSDFSKXLDKKAQXAFIEYLLEGGPSSGAPPPSGS (synthetic construct; SITE 2: note = 2-Aminoisobutyric Acid; SITE 13: note = alpha-methyl-leucine; SITE 17: note = Lysine is chemically modified through conjugation of the epsilon-amino group of the Lysine side chain with (2-[2-(2-Amino-ethoxy)-ethoxy]-acetyl)2-(gamma-Glu)-CO-(CH2 )16-CO2H; SITE 20:) [Example 142] , reported Relative cAMP EC50: 3.49 nM

Reported Relative cAMP EC50 for YXQGTXTSDXSIXLDXKAQXEFIEXLIEGGPSSGEPPPSGS (non-natural residues; lipidated Lys AEEA-γGlu-C18 diacid; C-term amide; synthetic construct; SITE 2: note = 2-Aminoisobutyric Acid; SITE 6: note = alpha-methyl-2-fluoro-L-phenylalanine; SITE 10: note = 3-(4-Pyridyl)-L-alanine; SITE 13: note = alpha-methyl-leucine; SITE 16: note = L-ornithine; SITE 17: note = Lysine is chemically modified through conjugation of the epsil) [Example 644] was 5.91 nM
